Source listed as BindingDB's records for doi:10.1021/jm050680m.

# Assay Summary: Antiproliferative activity against PDGF-BB stimulated HCASMC
pIC50: −log10 of the molar value.
Below, each of the compounds is paired with its reported pIC50 value.
Property Measured: pIC50

{"columns": ["Compound", "Property Measured", "Assay Value"],
 "data": [
  ["COc1cccc2c1Cc1c-2n[nH]c1Nc1ccccc1", "pIC50", 6.31],
  ["COC(=O)c1cccc(Nc2[nH]nc3c2Cc2cc(OC)c(OC)cc2-3)c1", "pIC50", 7.96],
  ["COc1cc2c(cc1OC)-c1n[nH]c(Nc3cccc(F)c3)c1C2 [JNJ-10198409]", "pIC50", 8.52],
  ["COc1cc2c(cc1OC)-c1n[nH]c(Nc3cccc(C(F)(F)F)c3)c1C2", "pIC50", 9.00]
]}
